assay: Pharmacokinetic study in mice
Assay type: in vivo, mouse
study_conditions: male, CD-1, mouse, plasma, po, 1 mg/kg, PO 1 mg/kg, read-out: F (bioavailability)
metric: bioavailability (%)
Answers are plain numbers, in %.

Ask: State its bioavailability: CC1(C)CN(C(=O)NCCCCO)CCN1Cc1cccc(C(=O)Nc2sc3c(c2C(=O)Nc2cc(F)c(CCc4ccc(C(=O)O)cc4)c(F)c2)CCCC3)c1
Reply: 12

###

study_target: Human PiT2 (Homo sapiens)
Construct: Full Length cDNA Cloning and Generation of Cell Lines Over-Expressing Human NPT2a, NPT2c, Pit1, and Pit2
Sequence (Q08357 whole entry): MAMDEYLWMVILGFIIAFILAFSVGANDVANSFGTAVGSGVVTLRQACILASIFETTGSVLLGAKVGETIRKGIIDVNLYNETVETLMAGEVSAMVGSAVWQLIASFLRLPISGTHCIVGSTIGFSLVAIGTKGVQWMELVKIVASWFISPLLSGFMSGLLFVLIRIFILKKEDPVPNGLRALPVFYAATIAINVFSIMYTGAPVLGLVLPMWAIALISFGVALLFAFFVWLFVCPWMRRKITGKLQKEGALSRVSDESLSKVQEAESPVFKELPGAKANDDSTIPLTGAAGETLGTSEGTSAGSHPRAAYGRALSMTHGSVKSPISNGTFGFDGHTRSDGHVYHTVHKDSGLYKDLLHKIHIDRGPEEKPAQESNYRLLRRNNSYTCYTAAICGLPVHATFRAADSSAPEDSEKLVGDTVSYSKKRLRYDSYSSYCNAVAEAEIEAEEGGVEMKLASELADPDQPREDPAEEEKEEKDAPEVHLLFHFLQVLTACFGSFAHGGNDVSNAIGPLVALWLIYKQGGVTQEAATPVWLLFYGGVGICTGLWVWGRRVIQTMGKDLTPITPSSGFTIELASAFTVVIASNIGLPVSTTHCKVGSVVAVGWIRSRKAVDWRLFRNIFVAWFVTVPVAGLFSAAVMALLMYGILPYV
assay: 33P-phosphate uptake in CHO cells over-expressing human PiT2
study_conditions: 45 min at 20°C
Description: T‐Rex™ Chinese Hamster Ovary cells (CHO; Thermo Fisher Scientific) stably expressing human, mouse, or rat NPT2b under a tetracycline‐inducible promoter were generated using standard cDNA transfection and clone selection procedures (see Supporting Information). […] The plate was immediately read on a Wallac MicroBeta Trilux liquid scintillation counter. […]
metric: IC50

Ask: State its IC50: CC1(C)CN(C(=O)NCCCCO)CCN1Cc1cccc(C(=O)Nc2sc3c(c2C(=O)Nc2cc(F)c(CCc4ccc(C(=O)O)cc4)c(F)c2)CCCC3)c1 [LY3358966]
Reply: > 100 µM
